- Tested on: HEK-293T
- TEST_DESCRIPTION: Multiplex assay against HEK293T
- Type: toxicity, cell-based
- EXPERIMENTAL_CONTEXT: human, 12 h, 10 µM, compound concentration 10 uM, replicate 1
Field: Population Apoptotic (%). Provide a value for each of the compounds that follow.
One number for each entry, in %.

These recorded examples may help you get a feel for the data.
[
  {
    "COMPOUND": "CCCC(CCC)C(=O)O",
    "Population Apoptotic (%)": 34
  },
  {
    "COMPOUND": "CCCn1c(=O)c2[nH]c(C3CCCC3)nc2n(CCC)c1=O",
    "Population Apoptotic (%)": 60
  },
  {
    "COMPOUND": "CC[C@H]1OC(=O)[C@H](C)[C@@H](O[C@H]2C[C@@](C)(OC)[C@@H](O)[C@H](C)O2)[C@H](C)[C@@H](O[C@@H]2O[C@H](C)C[C@H](N(C)C)[C@H]2O)[C@@]2(C)CC(C)=C(O2)[C@H](C)[C@@H](O)[C@]1(C)O",
    "Population Apoptotic (%)": 55
  }
]

For each of the compounds below, note its Population Apoptotic (%).
1. Cc1ccc(F)cc1C(=O)Nc1ccc(C(=O)N2Cc3cccn3Cc3ccccc32)c(Cl)c1
2. N#Cc1c(N)nc(SCc2csc(-c3ccc(Cl)cc3)n2)c(C#N)c1-c1ccc(OCCO)cc1
3. O=C(NCCO)c1cccc(-c2cc(Nc3ccc(OC(F)(F)F)cc3)ncn2)c1

1: 46; 2: 57; 3: 55

I would be grateful if you could provide Population Apoptotic (%) for each of the following entries.
1. CC(C)(C)c1ccc(S(=O)(=O)Nc2ccc(Cl)cc2C(=O)c2cc[n+]([O-])cc2)cc1
2. Cc1ccc(C(C)(O)c2nc3ccccc3s2)c(C)c1 (stereo not drawn)

1: 30; 2: 56
